# TEST SUMMARY: Acute toxicity for oral administration in mice
# Assay type: in vivo
# MEASUREMENT CONDITIONS: mouse, in vivo, po, suspension in 10% gum arabic
MEASURED ENDPOINT: LD50

Q: Fill in: LD50 of COc1cc(NC(=O)N2CCN(C(c3ccccc3)c3ccc(Cl)cc3)CC2)cc(OC)c1OC (stereo not drawn) is ___
Ans: > 5000 mg/kg

Q: Fill in: LD50 of COc1cc(NC(=O)NC2CCCCCC2)cc(OC)c1OC is ___
Ans: > 5000 mg/kg

Q: Fill in: LD50 of COc1cc(NC(=O)CN2CCN(c3cccc(C(F)(F)F)c3)CC2)cc(OC)c1OC is ___
Ans: > 5000 mg/kg
